Would you kindly list pIC50 for each of these compounds?
Biological target: NS3-NS4A protease (Hepatitis C virus genotype 1a, UniProt P27958)
Construct: Recombinant E. coli or Baculovirus full-length NS3 was diluted to 3.33 μM with assay buffer; made in house; host or cells: E. coli or baculovirus (BV) system
Sequence (P27958 1027-1657): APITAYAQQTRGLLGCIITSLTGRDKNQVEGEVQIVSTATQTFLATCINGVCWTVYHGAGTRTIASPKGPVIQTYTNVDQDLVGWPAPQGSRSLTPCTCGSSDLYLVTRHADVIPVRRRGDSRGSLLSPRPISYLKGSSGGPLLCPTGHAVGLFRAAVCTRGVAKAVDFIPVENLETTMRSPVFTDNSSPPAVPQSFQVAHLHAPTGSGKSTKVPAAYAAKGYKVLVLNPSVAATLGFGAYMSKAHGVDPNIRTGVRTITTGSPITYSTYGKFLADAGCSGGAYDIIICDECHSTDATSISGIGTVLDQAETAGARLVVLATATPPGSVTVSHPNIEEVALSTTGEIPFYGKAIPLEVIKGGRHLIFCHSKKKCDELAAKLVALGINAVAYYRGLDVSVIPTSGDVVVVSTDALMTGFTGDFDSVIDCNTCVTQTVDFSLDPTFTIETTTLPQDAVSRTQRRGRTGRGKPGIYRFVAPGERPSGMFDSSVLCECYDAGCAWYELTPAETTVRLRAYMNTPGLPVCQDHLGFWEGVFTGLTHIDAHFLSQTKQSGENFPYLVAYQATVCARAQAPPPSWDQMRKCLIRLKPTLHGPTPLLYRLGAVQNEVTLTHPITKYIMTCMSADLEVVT
Test: NS3-NS4A protease assay (NS3 inhibition assay, RETS1 substrate), Section B
Type: biochemical
Details: read-out: NS3-NS4A IC50
pIC50: −log10 of the molar value.

Please review the entries below; each comes with its answer.
CC(C)(C)OC(=O)N[C@H]1CCCCC/C=C\[C@@H]2C[C@@]2(C(=O)NS(=O)(=O)C2CC2)NC(=O)[C@@H]2C[C@@H](OC(=O)N3Cc4ccccc4C3)CN2C1=O : > 7.00
COc1ccc2[nH]c3c(c2c1)CCN(C(=O)O[C@@H]1C[C@H]2C(=O)N[C@]4(C(=O)O)C[C@H]4/C=C\CCCCC[C@H](NC(=O)OC(C)(C)C)C(=O)N2C1)C3 : > 6.00
CC(C)(C)NC(=O)N[C@H]1CCCCC/C=C\[C@@H]2C[C@@]2(C(=O)O)NC(=O)[C@@H]2C[C@@H](OC(=O)N3CCc4ccccc4C3)CN2C1=O : > 6.00
CC(C)(C)OC(=O)N[C@H]1CCCCC/C=C\[C@@H]2C[C@@]2(C(=O)NS(=O)(=O)C2CC2)NC(=O)[C@@H]2C[C@@H](OC(=O)N3CCc4ccccc4C3CN3CCCCC3)CN2C1=O (stereo partly shown) : > 7.00
CC(C)(C)OC(=O)N[C@H]1CCCCC/C=C\[C@@H]2C[C@@]2(C(=O)NS(=O)(=O)c2ccc([N+](=O)[O-])cc2)NC(=O)[C@@H]2C[C@@H](OC(=O)N3Cc4ccccc4C3)CN2C1=O : > 7.00

# batch size: 5; output pIC50 per entry
1. C[C@H]1CN(C(=O)O[C@@H]2C[C@H]3C(=O)N[C@]4(C(=O)NS(=O)(=O)C5CC5)C[C@H]4/C=C\CCCCC[C@H](NC(=O)OC(C)(C)C)C(=O)N3C2)Cc2ccccc21
2. O=C(N[C@H]1CCCCC/C=C\[C@@H]2C[C@@]2(C(=O)O)NC(=O)[C@@H]2C[C@@H](OC(=O)N3CCc4ccccc4C3)CN2C1=O)O[C@H]1CCOC1
3. CC(C)(C)OC(=O)N[C@H]1CCCCC/C=C\[C@@H]2C[C@@]2(C(=O)NS(=O)(=O)C2CC2)NC(=O)[C@@H]2C[C@@H](OC(=O)N3CCc4cccc(C(F)(F)F)c4C3)CN2C1=O
4. O=C(N[C@H]1CCCCC/C=C\[C@@H]2C[C@@]2(C(=O)NS(=O)(=O)C2CC2)NC(=O)[C@@H]2C[C@@H](OC(=O)N3CCc4ccccc4C3)CN2C1=O)OC1CCCC1
5. CC(C)(C)NC(=O)N[C@H]1CCCCC/C=C\[C@@H]2C[C@@]2(C(=O)O)NC(=O)[C@@H]2C[C@@H](OC(=O)N3Cc4ccc(Cl)cc4C3)CN2C1=O

Out:
["> 7.00", "> 6.00", "> 7.00", "> 7.00", "> 7.00"]
